Taken from PubChem BioAssay AID1159580.

assay: chemical genetic growth profiling, strain panel (AID 1159580);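 further: tested at 20 µM; growth read once vehicle control cultures reached saturation at 30 °C; 1 = growth at the plate median or of vehicle wells; lower values mean less growth of the strain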; conditions: S. cerevisiae deletion strains, growth OD, locus YGR229C, strain SMI1, active compounds read low
Screen size: about 5,500 compounds; about 2,000 (36%) were called active. About 18% were inconclusive and are not listed. The list shows a part of the results.
Mark y for normalized growth under 1, n if at or over.

Worked set:
C[N+](C)(C)CCO ... n
N=C(N)c1ccc(OCCCCCOc2ccc(C(=N)N)cc2)cc1 ... y
CC(C)(CO)Cc1cc(C(C)(C)C)c(O)c(C(C)(C)C)c1 ... y
NO ... n
C[C@@H]1CC[C@H]2[C@@H](C)C(O)O[C@@H]3O[C@@]4(C)CC[C@@H]1[C@]32OO4 (stereo partly specified) ... y
CC(C)c1ccccc1NC(=S)N1CCN(c2ncc(C(F)(F)F)cc2Cl)CC1 ... y

Data request: Determine whether this compound shows normalized growth lower than 1 (ties excluded): `O=c1[nH]cc(F)c(=O)[nH]1`
Data returned: y

====

experiment: chemical genetic growth profiling, strain panel (AID 1159580); conditions: S. cerevisiae deletion strains, growth OD, locus YNL071W, strain lat1
The whole screen tested about 5,500 compounds, of which about 2,000 (36%) were called active. Inconclusive results (about 18%) are left out. Rule as the data show it: active = normalized growth mostly below about 0.91 (no sharp cut-off); inconclusive = no clear call, values can overlap the other calls; inactive = mostly above about 0.92. This is one part of the list.
Use one of these outcomes when replying: active, inactive

N=C(N)SCCN ... inactive
O=c1[nH]cc(F)c(=O)[nH]1 ... active
COc1c(-c2coc3cc4c(cc3c2=O)CC(OC(C)=O)C(C)(C)O4)ccc2c1C=CC(C)(C)O2 (stereo unspecified) ... inactive
COc1c(-c2coc3cc4c(cc3c2=O)CC(O)C(C)(C)O4)ccc2c1C=CC(C)(C)O2 (stereo unspecified) ... inactive

Data request: How did this test come out for `Cc1ccc(N=CN(C)C=Nc2ccc(C)cc2C)c(C)c1` ?
Data returned: inactive

Data request: Outcome? `O=C1C(O)=C(O)C(=O)C(O)=C1O`
Data returned: inactive

====

assay: chemical genetic growth profiling, strain panel (AID 1159580); settings: S. cerevisiae deletion strains, growth OD, locus YJL129C, strain trk1, active compounds read low
The campaign covered roughly 5,500 compounds. About 2,000 (36%) were called active. Inconclusive results (about 18%) are left out. The list shows a part of the results.
As shown below, each of these molecules has a reported normalized growth value.
Please respond with just the number, no unit label.

Before answering, review these 4 worked examples.
COc1ccc2c(c1)c(CC(=O)OCC(=O)O)c(C)n2C(=O)c1ccc(Cl)cc1 ... 0.979
O=C(CNC(=O)c1ccc(Cl)cc1)NO ... 1.03
COc1cc(N)c(Cl)cc1C(=O)NC1CCN(Cc2ccccc2)CC1 ... 0.992
COc1ccc2c(c1)c(CC(=O)O)c(C)n2C(=O)c1ccc(Cl)cc1 ... 0.909

Data request: Quick one: normalized growth for `COc1cccc2c1C(=O)c1c(O)c3c(c(O)c1C2=O)C[C@@](O)(C(C)=O)C[C@@H]3O[C@H]1C[C@H](N)[C@H](O)[C@H](C)O1` ?
Data returned: 0.53

====

experiment: chemical genetic growth profiling, strain panel (AID 1159580); details: S. cerevisiae deletion strains, growth OD, locus YER111C, strain swi4, active compounds read low
The campaign covered roughly 5,500 compounds. About 2,000 (36%) were called active. Inconclusive results (about 18%) are left out. This is one part of the list. Where a SMILES comes first, the peptide text is derived from it. Bridges are numbered along the chain shown (N, C = ends). [ ]: non-standard residue; d: D form. The star is where a group is joined. ξ: configuration not given here. ξDab(CH2SO3H) = NC(CCNCS(=O)(=O)O)C(=O)O; Heptanoyl(6-Me) = CC(C)CCCCC(=O)*; Dab = NCC[CH](N)C(=O)O
Quick list: normalized growth per entry.
Just the number, please, no unit after it.

CCC(C)C(=O)O[C@H]1[C@H](O)C2C(CN3CC(C)CCC3[C@@]2(C)O)C2C[C@]34O[C@]5(O)C(OC(=O)C(C)(O)CC)CC[C@@]3(C)C5C(OC(C)=O)[C@@H](OC(C)=O)C4[C@@]21O (stereo partly specified) ... 1.02
O=c1ccc2ccc(O)cc2o1 ... 0.981
CCC(C)C1NC(=O)C(CCNCS(=O)(=O)O)NC(=O)C(NC(=O)C(CCNCS(=O)(=O)O)NC(=O)C(NC(=O)C(CCNCS(=O)(=O)O)NC(=O)CCCCC(C)C)C(C)O)CCNC(=O)C(C(C)O)NC(=O)C(CCNCS(=O)(=O)O)NC(=O)C(CCNCS(=O)(=O)O)NC(=O)C(C(C)CC)NC1=O (stereo unspecified) ({Heptanoyl(6-Me)}-[ξDab(CH2SO3H)]T[ξDab(CH2SO3H)][Dab][ξDab(CH2SO3H)]II[ξDab(CH2SO3H)][ξDab(CH2SO3H)]T; lactam 4-C; configuration not given here) ... 1
C#C[C@]1(OC(C)=O)CCC2C3CCC4=C/C(=N\O)CCC4C3CC[C@@]21CC (stereo partly specified) ... 1.01
C#C[C@]1(O)CCC2C3CCC4=CC(=O)CC[C@@H]4C3CC[C@@]21C (stereo partly specified) ... 0.988

Moving on to another compound below.
Data request: What value of measured normalized growth is listed for COC(=O)C[C@H]1C(C)(C)C2(O)OC34CC2C(=O)[C@]1(C)C3CC[C@]1(C)C4=CC(=O)O[C@H]1c1ccoc1 (stereo partly specified) ?
Data returned: 0.985

====

test: chemical genetic growth profiling, strain panel (AID 1159580);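 further: tested at 20 µM; growth read once vehicle control cultures reached saturation at 30 °C; 1 = growth at the plate median or of vehicle wells; lower values mean less growth of the strain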; conditions: S. cerevisiae deletion strains, growth OD, locus YOR080W, strain dia2, active compounds read low
In all, about 5,500 compounds went through this assay and about 2,000 (36%) were called active. Roughly 18% stayed inconclusive and do not appear here. Some of the results follow.
measurement.label: normalized growth
// return a plain number; no unit text

Solved entries:
Cc1ccnc(NS(=O)(=O)c2ccc(N)cc2)n1 ... 1.01
O=C1C(O)=C(O)C(=O)C(O)=C1O ... 1.02
CCC(C)C(=O)O[C@H]1[C@H](O)C2C(CN3CC(C)CCC3[C@@]2(C)O)C2C[C@]34O[C@]5(O)C(OC(=O)C(C)(O)CC)CC[C@@]3(C)C5C(OC(C)=O)[C@@H](OC(C)=O)C4[C@@]21O (stereo partly drawn) ... 1.04
Nc1ccc(S(=O)(=O)Nc2ccnn2-c2ccccc2)cc1 ... 1

Data request: Endpoint output: normalized growth of C[C@@H]1CC[C@]2(C(=O)O)CC[C@]3(C)C(=CCC4[C@@]5(C)CC[C@H](O)C(C)(C)C5CC[C@]43C)C2[C@H]1C (stereo partly drawn) . Value?
Data returned: 0.998

====

experiment: chemical genetic growth profiling, strain panel (AID 1159580);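 further: tested at 20 µM; growth read once vehicle control cultures reached saturation at 30 °C; 1 = growth at the plate median or of vehicle wells; lower values mean less growth of the strain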; settings: S. cerevisiae deletion strains, growth OD, locus YLR027C, strain aat2, active compounds read low
Screen size: about 5,500 compounds; about 2,000 (36%) were called active. Inconclusive results (about 18%) are left out. This is one part of the list.
measurement.label: normalized growth
No unit in the answer, only the number.

Below are worked cases with known answers.
COc1ccc2c(c1)c(CC(=O)OCC(=O)O)c(C)n2C(=O)c1ccc(Cl)cc1 ... 0.971
COc1ccc2c(c1)c(CC(=O)O)c(C)n2C(=O)c1ccc(Cl)cc1 ... 0.98
CNCc1ccccc1 ... 0.997
COC(=O)Nc1nc2ccc(Sc3ccccc3)cc2[nH]1 ... 0.995
C[C@@H]1CC[C@]2(C(=O)O)CC[C@]3(C)C(=CCC4[C@@]5(C)CC[C@H](O)C(C)(C)C5CC[C@]43C)C2[C@H]1C (some centres undefined) ... 1.01
Cc1ccc(S(=O)(=O)NC(=O)NN2CC3CCCC3C2)cc1 (centres undefined) ... 0.976
C[C@H]1[C@H](C)CC[C@]2(CO)CC[C@]3(C)C(=CCC4[C@@]5(C)CC[C@H](O)C(C)(C)C5CC[C@]43C)[C@H]12 (some centres undefined) ... 0.976
COC(=O)Nc1nc2ccc(S(=O)c3ccccc3)cc2[nH]1 (centres undefined) ... 0.989

Now examine the next entry.
Data request: I have this compound here, CC(CC(=O)C1OC1(C)C)C1C(=O)CC2(C)C3=CCC4C(C)(C)C(OC5OCC(O)C(O)C5O)CCC45CC35C(O)CC12C (centres undefined) , and I need its recorded normalized growth.
Data returned: 1.03

====

assay: chemical genetic growth profiling, strain panel (AID 1159580);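 further: tested at 20 µM; growth read once vehicle control cultures reached saturation at 30 °C; 1 = growth at the plate median or of vehicle wells; lower values mean less growth of the strain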; details: S. cerevisiae deletion strains, growth OD, locus YDR137W, strain rgp1
Out of some 5,500 compounds screened, about 2,000 (36%) were called active. Another 18% or so got no clear call; they are omitted. Cut-off read from the data, not from the text of the source: active = normalized growth mostly below about 0.91 (no sharp cut-off); inconclusive = no clear call, values can overlap the other calls; inactive = mostly above about 0.92. This is one part of the list.
Response enum: active, inactive

Illustrative cases are given below, each with its answer.
CC1=NS(=O)(=O)c2cc(Cl)ccc2N1 ... inactive
CC(C)(Oc1ccc(CCNC(=O)c2ccc(Cl)cc2)cc1)C(=O)O ... inactive
Cc1cc(C(C)(C)C)c(O)c(C(C)(C)C)c1 ... inactive
O=C1C(O)=C(O)C(=O)C(O)=C1O ... inactive
C#C[C@]1(O)CCC2C3CCC4=C(CCC(=O)C4)C3CC[C@@]21C (some centres not stated) ... active
CC(C)CCCC1(C)C=Cc2c(O)c3c(c(CCC(C)C)c2O1)OC12C(CC4CC1C(C)(C)OC2(CCC(C)C(=O)O)C4O)C3=O (configuration not stated) ... active

Data request: Please let me know the test result on file for C#C[C@]1(O)CCC2C3CCC4=CC(=O)CC[C@@H]4C3CC[C@@]21CC (some centres not stated) .
Data returned: active

Data request: Returns: the outcome recorded for CO[C@@]12[C@@H]3NC3CN1C1=C(C(=O)C(N)=C(C)C1=O)[C@@H]2COC(N)=O (some centres not stated) in this assay.
Data returned: inactive

Data request: Can you look up the reported call for CC(=O)NC(C(=O)O)C(C)(C)SN=O (configuration not stated) for me?
Data returned: inactive

Data request: Recorded call for `O=c1[nH]cc(F)c(=O)[nH]1` ?
Data returned: active

Data request: How was COC(=O)C[C@H]1C(C)(C)C2(O)OC34CC2C(=O)[C@]1(C)C3CC[C@]1(C)C4=CC(=O)O[C@H]1c1ccoc1 (some centres not stated) classified in this test?
Data returned: inactive
